Assay: Log P value test (partition coefficient in n-octane (oil) and water)
Type: physicochemical
Settings: LogP
PROPERTY MEASURED: logD hydrocarbon water

COMPOUND	PROPERTY MEASURED	RECORDED RESULT
CC[C@@]1(O)C(=O)OCc2c1cc1n(c2=O)Cc2c-1nc1cc(F)c(C)c3c1c2[C@H](NC(=O)C1(CO)CCC1)CC3 [Compound 9]	logD hydrocarbon water	1.6
CC[C@@]1(O)C(=O)OCc2c1cc1n(c2=O)Cc2c-1nc1cc(F)c(C)c3c1c2[C@@H](NC(=O)[C@H](O)C1CC1)CC3 [Compound 16, reference compound]	logD hydrocarbon water	2.6
CC[C@@]1(O)C(=O)OCc2c1cc1n(c2=O)Cc2c-1nc1cc(F)c(C)c3c1c2[C@@H](NC(=O)[C@@H](O)C1CC1)CC3 [Compound 15, reference compound]	logD hydrocarbon water	2.7
CC[C@@]1(O)C(=O)OCc2c1cc1n(c2=O)Cc2c-1nc1cc(F)c(C)c3c1c2[C@@H](NC(=O)[C@@H](O)C(F)(F)F)CC3 [Compound 14, reference compound]	logD hydrocarbon water	2.6
CC[C@@]1(O)C(=O)OCc2c1cc1n(c2=O)Cc2c-1nc1cc(F)c(C)c3c1c2[C@@H](NC(=O)[C@H](O)C(F)(F)F)CC3 [Compound 5]	logD hydrocarbon water	1.9

CC[C@@]1(O)C(=O)OCc2c1cc1n(c2=O)Cc2c-1nc1cc(F)c(C)c3c1c2[C@H](NC(=O)[C@@H](O)C1CC1)CC3 [Compound 7] has a reported logD hydrocarbon water of 1.7

CC[C@@]1(O)C(=O)OCc2c1cc1n(c2=O)Cc2c-1nc1cc(F)c(C)c3c1c2[C@H](NC(=O)[C@H](C)O)CC3 [Compound 3] has a reported logD hydrocarbon water of 1.6

CC[C@@]1(O)C(=O)OCc2c1cc1n(c2=O)Cc2c-1nc1cc(F)c(C)c3c1c2[C@@H](NC(=O)[C@H](C)O)CC3 [Compound 11, reference compound] has a reported logD hydrocarbon water of 2.5

CC[C@@]1(O)C(=O)OCc2c1cc1n(c2=O)Cc2c-1nc1cc(F)c(C)c3c1c2[C@H](NC(=O)[C@H](O)C1CC1)CC3 [Compound 8] has a reported logD hydrocarbon water of 1.8

CC[C@@]1(O)C(=O)OCc2c1cc1n(c2=O)Cc2c-1nc1cc(F)c(C)c3c1c2[C@H](NC(=O)[C@@H](O)C(F)(F)F)CC3 [Compound 6] has a reported logD hydrocarbon water of 1.9

CC[C@@]1(O)C(=O)OCc2c1cc1n(c2=O)Cc2c-1nc1cc(F)c(C)c3c1c2[C@@H](NC(=O)[C@@H](C)O)CC3 [Compound 12, reference compound] has a reported logD hydrocarbon water of 2.5

CC[C@@]1(O)C(=O)OCc2c1cc1n(c2=O)Cc2c-1nc1cc(F)c(C)c3c1c2[C@H](NC(=O)[C@@H](C)O)CC3 [Compound 4] has a reported logD hydrocarbon water of 1.9
